Cited source: patent US7393856B2

Experiment: In vitro anti-viral activity for HIV-2
Format: cell-based
Details: HIV-2 assay; toxic concentration that kills 50% of cells; read-out: Anti-HIV-2 Activity TC50
Attribute measured: CC50 (nM)
Express it in nM; write the number only.

// query Need CC50, item Fc1ccc(B(Oc2cccc3cccnc23)c2ccc(Cl)cc2)cc1 [Compound 15]
// result 530
